# assay_name: Hepatome AH 130 tumour growth inhibition in rats
# Format: in vivo, Sprague-Dawley rats
# measurement_context: rat, in vivo, ip, one i.p. injection, read-out: T.I. (LD50/ED50)
# Excerpt: LD50 is the dose that causes a 50 percent lethality of the animals, and ED50 is the dose that causes a 50 percent reduction of tumour size. The experimental design and the interpretation of the results are in accordance with the standards set by the CCNSC (Cancer Chemotherpy Reports, January 1959 and December 1962). Experimental animals: Sprague-Dawley rats. Tumour implant: 5 × 10^6 tumour cells i.p. Therapy: One injection i.p. on the day following implanta- […]
In this section we review reported selectivity ratio values for a set of compounds.

Guide cases for selectivity ratio, answers given:
CC(=O)[C@@]1(OC(=O)COC(=O)Nc2ccc(N(CCCl)CCCl)cc2)CC[C@H]2[C@@H]3CCC4=CC(=O)CC[C@]4(C)[C@H]3CC[C@@]21C [Compound 5:1]    > 8
CC(=O)[C@@]1(OC(=O)COC(=O)CCCc2ccc(N(CCCl)CCCl)cc2)CC[C@H]2[C@@H]3CCC4=CC(=O)CC[C@]4(C)[C@H]3CC[C@@]21C [Compound 3:2]    > 10
CC(=O)[C@@]1(OC(=O)COC(=O)CSc2ccc(N(CCCl)CCCl)cc2)CC[C@H]2[C@@H]3CCC4=CC(=O)CC[C@]4(C)[C@H]3CC[C@@]21C [3:5]    > 5
CC(=O)[C@@]1(OC(=O)COC(=O)c2ccc(C)c(N(CCCl)CCCl)c2)CC[C@H]2[C@@H]3CCC4=CC(=O)CC[C@]4(C)[C@H]3CC[C@@]21C [Compound 3:7]    > 125
CC(=O)[C@@]1(OC(=O)CCCOC(=O)CCCc2ccc(N(CCCl)CCCl)cc2)CC[C@H]2[C@@H]3CCC4=CC(=O)CC[C@]4(C)[C@H]3CC[C@@]21C [Compound 3:3]    30

--- query ---
Exercise: Note down selectivity ratio recorded for CC(=O)[C@@]1(OC(=O)COC(=O)Cc2ccc(N(CCCl)CCCl)cc2)CC[C@H]2[C@@H]3CCC4=CC(=O)CC[C@]4(C)[C@H]3CC[C@@]21C [3:1]
Solution: > 83

---

# assay_name: Hepatome AH 130 tumour growth inhibition in rats
# Type: in vivo, Sprague-Dawley rats
# measurement_context: rat, in vivo, ip, one i.p. injection, dose causing 50 percent lethality, column head not given
Below, each of the molecules is paired with its reported LD50 value.

Exercise: For the molecule CC(=O)[C@@]1(OC(=O)CCCOC(=O)c2ccc(C)c(N(CCCl)CCCl)c2)CC[C@H]2[C@@H]3CCC4=CC(=O)CC[C@]4(C)[C@H]3CC[C@@]21C [7:4] , give its reported LD50.
Solution: > 250 mg/kg

Exercise: Answer with reported LD50 of CC(=O)[C@@]1(OC(=O)COC(=O)CSc2ccc(N(CCCl)CCCl)cc2)CC[C@H]2[C@@H]3CCC4=CC(=O)CC[C@]4(C)[C@H]3CC[C@@]21C [3:5]
Solution: > 250 mg/kg

Exercise: Note down LD50 recorded for CC(=O)[C@@]1(OC(=O)CCCOC(=O)Cc2ccc(N(CCCl)CCCl)cc2)CC[C@H]2[C@@H]3CCC4=CC(=O)CC[C@]4(C)[C@H]3CC[C@@]21C [3:4]
Solution: 50 mg/kg

Exercise: Look up and state reported LD50 for CC(=O)[C@@]1(OC(=O)COC(=O)Nc2ccc(N(CCCl)CCCl)cc2)CC[C@H]2[C@@H]3CCC4=CC(=O)CC[C@]4(C)[C@H]3CC[C@@]21C [Compound 5:1]
Solution: > 250 mg/kg

---

# System: Hepatome AH 130
# assay_name: Hepatome AH 130 tumour growth inhibition in rats
# Format: in vivo, Sprague-Dawley rats
# Design: unit not given here
# measurement_context: one i.p. injection, dose causing 50 percent reduction of tumour size, killed 8th day
readout_name: ED50

CC(=O)[C@@]1(OC(=O)COC(=O)Nc2ccc(N(CCCl)CCCl)cc2)CC[C@H]2[C@@H]3CCC4=CC(=O)CC[C@]4(C)[C@H]3CC[C@@]21C [Compound 5:1]    30
CC(=O)[C@@]1(OC(=O)COC(=O)c2ccc(C)c(N(CCCl)CCCl)c2)CC[C@H]2[C@@H]3CCC4=CC(=O)CC[C@]4(C)[C@H]3CC[C@@]21C [Compound 3:7]    2
CC(=O)[C@@]1(OC(=O)CCCOC(=O)c2ccc(C)c(N(CCCl)CCCl)c2)CC[C@H]2[C@@H]3CCC4=CC(=O)CC[C@]4(C)[C@H]3CC[C@@]21C [7:4]    16

Exercise: Tell me measured ED50 for CC(=O)[C@@]1(OC(=O)CNC(=O)CCCc2ccc(N(CCCl)CCCl)cc2)CC[C@H]2[C@@H]3CCC4=CC(=O)CC[C@]4(C)[C@H]3CC[C@@]21C [Compound 4:1] please.
Solution: 125

Exercise: Query ED50 for CC(=O)[C@@]1(OC(=O)CCCOC(=O)Cc2ccc(N(CCCl)CCCl)cc2)CC[C@H]2[C@@H]3CCC4=CC(=O)CC[C@]4(C)[C@H]3CC[C@@]21C [3:4]
Solution: 2

Exercise: State, in one line, measured ED50 of CC(=O)[C@@]1(OC(=O)COC(=O)CSc2ccc(N(CCCl)CCCl)cc2)CC[C@H]2[C@@H]3CCC4=CC(=O)CC[C@]4(C)[C@H]3CC[C@@]21C [3:5]
Solution: 50

---

# Test system: Hepatome AH 130
# assay_name: Hepatome AH 130 tumour growth inhibition in rats
# Type: in vivo, Sprague-Dawley rats
# Parameters: unit not given here
# measurement_context: one i.p. injection, dose causing 50 percent reduction of tumour size, killed 8th day
readout_name: ED50
Please respond with just the number, no unit label.

Answered examples (2):
CC(=O)[C@@]1(OC(=O)COC(=O)CCCc2ccc(N(CCCl)CCCl)cc2)CC[C@H]2[C@@H]3CCC4=CC(=O)CC[C@]4(C)[C@H]3CC[C@@]21C    100
CC(=O)[C@@]1(OC(=O)CCCOC(=O)CCCc2ccc(N(CCCl)CCCl)cc2)CC[C@H]2[C@@H]3CCC4=CC(=O)CC[C@]4(C)[C@H]3CC[C@@]21C    6

Okay, now this compound:
Exercise: Give ED50 for the following compound: `CC(=O)[C@@]1(OC(=O)COC(=O)Cc2ccc(N(CCCl)CCCl)cc2)CC[C@H]2[C@@H]3CCC4=CC(=O)CC[C@]4(C)[C@H]3CC[C@@]21C`
Solution: 3

---

Recorded relative binding affinity (RBA) by entry
# assayed_target: rabbit uterus cytosol progesterone receptor (Oryctolagus cuniculus)
# Construct: One ml portions of the supernatant (rabbit uterus cytosol) were pipetted into small centrifuge tubes of glass; from tissue; host or cells: uterus cytosol (105,000×g supernatant) of female rabbits pretreated with polyestradiol phosphate
# Sequence (P06186 whole entry): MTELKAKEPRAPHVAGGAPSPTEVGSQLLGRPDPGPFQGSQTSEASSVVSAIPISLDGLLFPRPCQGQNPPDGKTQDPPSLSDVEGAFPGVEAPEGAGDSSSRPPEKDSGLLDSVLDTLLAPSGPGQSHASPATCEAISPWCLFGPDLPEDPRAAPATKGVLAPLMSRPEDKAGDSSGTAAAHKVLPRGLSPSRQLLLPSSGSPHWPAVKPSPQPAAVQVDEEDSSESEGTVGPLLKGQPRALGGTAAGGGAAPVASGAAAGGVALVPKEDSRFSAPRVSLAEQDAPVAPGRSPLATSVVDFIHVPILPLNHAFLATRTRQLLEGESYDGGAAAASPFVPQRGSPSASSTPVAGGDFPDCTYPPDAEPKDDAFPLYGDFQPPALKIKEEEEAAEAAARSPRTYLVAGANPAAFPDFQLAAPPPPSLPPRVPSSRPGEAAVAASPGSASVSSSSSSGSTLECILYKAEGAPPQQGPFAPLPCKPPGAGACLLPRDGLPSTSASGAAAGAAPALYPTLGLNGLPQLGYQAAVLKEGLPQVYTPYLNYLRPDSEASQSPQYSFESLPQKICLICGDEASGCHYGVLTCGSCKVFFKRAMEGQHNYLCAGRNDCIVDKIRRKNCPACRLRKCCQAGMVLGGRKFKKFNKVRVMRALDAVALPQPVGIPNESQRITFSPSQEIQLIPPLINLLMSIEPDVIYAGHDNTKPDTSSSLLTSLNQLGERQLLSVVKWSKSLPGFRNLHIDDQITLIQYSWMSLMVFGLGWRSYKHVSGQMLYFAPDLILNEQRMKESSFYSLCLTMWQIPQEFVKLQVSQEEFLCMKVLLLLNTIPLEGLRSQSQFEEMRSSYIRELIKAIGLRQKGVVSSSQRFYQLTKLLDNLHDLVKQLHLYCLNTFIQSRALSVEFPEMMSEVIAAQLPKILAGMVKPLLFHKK
# assay_name: Relative affinity to rabbit uterus cytosol progesterone receptor (3H-progesterone competition)
# Format: binding
# measurement_context: compared to progesterone; 50% competition with 3H-progesterone; 16-18 hours at 4° C.
Quick reminder: number only, in %, skip the unit.

Examples from the recorded data:
CC(=O)[C@@]1(OC(=O)COC(=O)CCCc2ccc(N(CCCl)CCCl)cc2)CC[C@H]2[C@@H]3CCC4=CC(=O)CC[C@]4(C)[C@H]3CC[C@@]21C    0.7
CC(=O)[C@@]1(OC(=O)CCCOC(=O)CCCc2ccc(N(CCCl)CCCl)cc2)CC[C@H]2[C@@H]3CCC4=CC(=O)CC[C@]4(C)[C@H]3CC[C@@]21C    0.6
CC(=O)[C@@]1(OC(=O)COC(=O)c2ccc(C)c(N(CCCl)CCCl)c2)CC[C@H]2[C@@H]3CCC4=CC(=O)CC[C@]4(C)[C@H]3CC[C@@]21C    1.8

Please look at the following compound next.
Exercise: Give relative binding affinity (RBA) for `CC(=O)[C@@]1(OC(=O)CNC(=O)CCCc2ccc(N(CCCl)CCCl)cc2)CC[C@H]2[C@@H]3CCC4=CC(=O)CC[C@]4(C)[C@H]3CC[C@@]21C` tested on rabbit uterus cytosol progesterone receptor (Oryctolagus cuniculus).
Solution: 1.1

---

selectivity ratio values by entry
# assay_name: Walker carcinosarcoma 256 tumour growth inhibition in rats
# Assay type: in vivo, Sprague-Dawley rats
# measurement_context: rat, in vivo, po, daily p.o. for 5 days, read-out: T.I. (LD50/ED50)
Response field accepts a number only; no unit should be typed.

CC(=O)[C@@]1(OC(=O)CCCOC(=O)CCCc2ccc(N(CCCl)CCCl)cc2)CC[C@H]2[C@@H]3CCC4=CC(=O)CC[C@]4(C)[C@H]3CC[C@@]21C    20

Exercise: Provide only the value of recorded selectivity ratio for `CC(=O)[C@@]1(OC(=O)CCCOC(=O)Cc2ccc(N(CCCl)CCCl)cc2)CC[C@H]2[C@@H]3CCC4=CC(=O)CC[C@]4(C)[C@H]3CC[C@@]21C`
Solution: 20
